# Test system: LPS induced TNF-α production by human leucocytes (PBMC)
# test_protocol: Inhibition of LPS induced TNF-a production by human leucocytes in vitro (experimental setup 1)
# Type: cell-based
# conditions_used: human leucocyte suspension, 10 ng LPS/mL, 18 hours; maximal effect (10^−7 M)
# LPS induced TNF-a accumulation, % of the maximal response (LPS-Vehicle) per entry
Entry rule: numbers only, all in %.

Study these solved cases before continuing.
>  <substance>
Ser-Tyr-Ser-Met-Glu-His-Phe-Arg-Trp-Gly-Lys-Pro-Val [a-MSH, reference compound]

>  <readout_units>
%

>  <value>
73

$$$$
>  <substance>
Ac-Lys-Lys-Lys-Lys-Lys-Lys-Ser-Tyr-Ser-Met-Glu-His-Phe-Arg-Trp-Gly-Lys-Pro-Val-NH2 (Ac-KKKKKKSYSMEHFRWGKPV-NH2) [a-MSH analogue #1]

>  <readout_units>
%

>  <value>
47

$$$$
>  <substance>
Ac-Lys-Lys-Lys-Lys-Lys-Lys-Ser-Tyr-Ser-Nle-Glu-His-D-Nal-Arg-Trp-Gly-Lys-Pro-Val-NH2 (KKKKKKSYSXEHXRWGKPV; not fully specified; N-acetyl, Nle, D-Nal, C-amide) [a-MSH analogue #3]

>  <readout_units>
%

>  <value>
53

$$$$

Okay, now this substance:
Measured LPS induced TNF-a accumulation, % of the maximal response (LPS-Vehicle) of Ac-Lys-Lys-Lys-Lys-Lys-Lys-Ser-Tyr-Ser-Nle-Glu-His-(D-Phe)-Arg-Trp-Gly-Lys-Pro-Val-NH2 (KKKKKKSYSXEHFRWGKPV; N-acetyl, Nle, D-Phe, C-amide) [a-MSH analogue #2] : 42
